- Target under test: Rsk2(h) (Homo sapiens, UniProt P51812)
- Sequence (P51812 whole entry): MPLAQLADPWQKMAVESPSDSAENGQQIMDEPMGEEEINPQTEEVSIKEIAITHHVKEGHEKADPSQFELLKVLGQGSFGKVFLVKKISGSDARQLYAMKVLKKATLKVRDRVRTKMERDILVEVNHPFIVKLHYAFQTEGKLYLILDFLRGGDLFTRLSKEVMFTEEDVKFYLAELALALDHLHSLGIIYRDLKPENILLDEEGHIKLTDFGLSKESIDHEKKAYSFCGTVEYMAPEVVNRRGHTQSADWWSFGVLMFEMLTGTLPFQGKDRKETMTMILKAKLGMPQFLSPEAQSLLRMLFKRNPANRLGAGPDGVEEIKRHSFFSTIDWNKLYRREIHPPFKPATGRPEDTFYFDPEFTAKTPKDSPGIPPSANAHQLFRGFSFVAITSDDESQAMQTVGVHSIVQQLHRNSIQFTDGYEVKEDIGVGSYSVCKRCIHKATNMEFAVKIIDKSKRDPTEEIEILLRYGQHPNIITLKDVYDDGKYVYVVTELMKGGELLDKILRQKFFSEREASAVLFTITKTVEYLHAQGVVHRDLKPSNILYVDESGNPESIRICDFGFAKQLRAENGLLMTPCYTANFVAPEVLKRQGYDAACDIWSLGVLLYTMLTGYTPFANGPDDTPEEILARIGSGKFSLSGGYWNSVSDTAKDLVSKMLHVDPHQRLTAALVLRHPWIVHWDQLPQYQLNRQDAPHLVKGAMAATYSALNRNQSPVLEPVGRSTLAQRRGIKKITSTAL
- Protocol summary: Rsk2(h) kinase assay
- Format: biochemical
- Stated conditions: 3 μM; percent of control kinase activity
Measurement name: Inhibitory activity (% of control), Rsk2(h)

Look over these answered cases.
Compound | Value observed
CC(C)Cc1nc(-c2ccc3[nH]nc(-c4ccc5cc(OCCN6CCCC6)ccc5c4)c3c2)n[nH]1 | 5 % of control
COc1ccc2cc(-c3n[nH]c4ccc(-c5n[nH]c(CN6CCOCC6)n5)cc34)ccc2c1 | 6 % of control
Fc1ccc(-c2n[nH]c3ccc(-c4n[nH]c(C5CCCC5)n4)cc23)cc1 [CC006, reference compound] | 31 % of control
CC(C)(C)Cc1nc(-c2ccc3[nH]nc(-c4ccc5cc(OCc6ccccn6)ccc5c4)c3c2)n[nH]1 | 34 % of control
O=C(NC1CCCC1)c1cccc(-c2n[nH]c3ccc(-c4nc[nH]n4)cc23)c1 [CC007, reference compound] | 45 % of control

Read the next record carefully.
Record CCN1CCC[C@H]1COc1ccc2cc(-c3n[nH]c4ccc(-c5nc(CC(C)(C)C)n[nH]5)cc34)ccc2c1 , field Inhibitory activity (% of control), Rsk2(h): 3 % of control

###

- Target under test: UniProtKB Q02156
- Sequence (Q02156 1-737): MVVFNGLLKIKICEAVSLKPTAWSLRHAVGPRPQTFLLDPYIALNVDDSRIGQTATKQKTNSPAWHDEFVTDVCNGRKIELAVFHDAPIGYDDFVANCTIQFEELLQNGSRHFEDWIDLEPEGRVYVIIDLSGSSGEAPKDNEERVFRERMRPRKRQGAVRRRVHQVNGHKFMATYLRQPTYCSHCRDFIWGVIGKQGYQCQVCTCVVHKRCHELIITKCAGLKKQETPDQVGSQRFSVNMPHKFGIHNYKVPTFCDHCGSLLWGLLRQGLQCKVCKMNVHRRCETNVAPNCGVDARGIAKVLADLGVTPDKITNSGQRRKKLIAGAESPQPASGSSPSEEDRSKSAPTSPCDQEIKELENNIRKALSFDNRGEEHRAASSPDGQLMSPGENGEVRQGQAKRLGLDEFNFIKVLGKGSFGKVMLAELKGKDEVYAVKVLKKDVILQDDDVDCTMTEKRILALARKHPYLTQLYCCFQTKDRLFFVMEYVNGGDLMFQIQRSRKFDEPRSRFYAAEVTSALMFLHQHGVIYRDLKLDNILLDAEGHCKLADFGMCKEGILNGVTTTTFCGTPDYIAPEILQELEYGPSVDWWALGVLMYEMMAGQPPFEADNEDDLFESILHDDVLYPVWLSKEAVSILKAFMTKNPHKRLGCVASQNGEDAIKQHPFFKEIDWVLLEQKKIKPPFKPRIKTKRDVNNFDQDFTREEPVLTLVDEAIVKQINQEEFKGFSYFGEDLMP
- Protocol summary: PKCε(h) kinase assay
- Type: biochemical
- Stated conditions: 3 μM; percent of control kinase activity
- Experimental: Six compounds (presumptive single agents) were tested against a panel of 50 kinases. The results are presented in Table 2; numbers for each kinase indicate the percent of control kinase activity in the presence of a 3μM concentration of the indicated agent. Agents that target two or more different kinases are useful in the methods of the invention as described elsewhere herein. […]
This listing pairs molecules with measured Inhibitory activity (% of control), PKCε(h).

Molecule | Target under test | Value observed
CCN1CCC[C@H]1COc1ccc2cc(-c3n[nH]c4ccc(-c5nc(CC(C)(C)C)n[nH]5)cc34)ccc2c1 | UniProtKB Q02156 | 84 % of control

Record CC(C)(C)Cc1nc(-c2ccc3[nH]nc(-c4ccc5cc(OCc6ccccn6)ccc5c4)c3c2)n[nH]1 , field Inhibitory activity (% of control), PKCε(h): 105 % of control

Record Fc1ccc(-c2n[nH]c3ccc(-c4n[nH]c(C5CCCC5)n4)cc23)cc1 [CC006, reference compound] , field Inhibitory activity (% of control), PKCε(h): 82 % of control

Record COc1ccc2cc(-c3n[nH]c4ccc(-c5n[nH]c(CN6CCOCC6)n5)cc34)ccc2c1 , field Inhibitory activity (% of control), PKCε(h): 82 % of control

Record CC(C)Cc1nc(-c2ccc3[nH]nc(-c4ccc5cc(OCCN6CCCC6)ccc5c4)c3c2)n[nH]1 , field Inhibitory activity (% of control), PKCε(h): 58 % of control

Record O=C(NC1CCCC1)c1cccc(-c2n[nH]c3ccc(-c4nc[nH]n4)cc23)c1 [CC007, reference compound] , field Inhibitory activity (% of control), PKCε(h): 79 % of control
